Some binders, each annotated with its measured ELISA binding ratio (fold-change over background).
- assayedSystem: T1, His/Avi-CynoIL18BP (recombinant cynomolgus IL-18BP with His and Avi tags) (cynomolgus monkey)
- T1 construct: also called cynomolgus IL-18BP-Avi-His
- T1 chain: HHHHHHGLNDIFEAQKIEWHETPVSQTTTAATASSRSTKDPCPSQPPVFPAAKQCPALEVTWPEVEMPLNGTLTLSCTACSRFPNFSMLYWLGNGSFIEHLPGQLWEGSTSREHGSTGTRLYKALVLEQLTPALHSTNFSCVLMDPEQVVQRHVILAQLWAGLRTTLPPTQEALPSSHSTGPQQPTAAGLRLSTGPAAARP
- experimentalProtocol: ELISA, coated IL-18BP
Report the value in fold over background with no unit label.

binder	uom	measuredValue
anti-IL18BP antibody BP-09 (antibody, human IgG1, V domains shown) VH: QVQLQQSGAELVRPGASVTLSCKASGYRFTDYAMHWVKQTPVHGLQWIGIIDPETGDTAFNQKFKGKATLTADKSSSTAYMELSSLTSEDSAVYYCTRPRGAMDYWGQGTSVTVSS VL: DIVMTQSHKFMSTSGGDRVSITCKASQDVGTAVAWYQQKPGISPKLLIYWASTRHTGVPDRFTGSGSGTDFTLAISNVQSEDLADYFCQQYSSHPYTFGGGTKLEIK	fold over background	44.9
anti-IL18BP antibody BP-01 (antibody, human IgG1, V domains shown) VH: QVQLQQSGPEVVRPGVSVKISCKGSGYTFTDFAMYWVKQSHAKSLEWIGVISTDNGDTSYNQKFKGKATMTVDKSSSTAYMELDRLTSEDSAIYYCARSRGPFDYWGQGTALTVSS VL: DIVMTQSHKFKSTSVGDRVNITCKASQDVGTAVAWYQQKPGQSPKLLIYWASTRHIGVPDRFTGSGSGTDFTLTIRNVQSEDLADYFCQRYSSYPWTFGGGTKLEIK	fold over background	47.4
anti-IL18BP antibody BP-07 (antibody, human IgG1, V domains shown) VH: EVQLQQSGPELVKPGASVKISCRASGFTITDYNMDWVRQSHGKSLEWIGNINLNNGGSIYNQKFKGKATLTIDKSSSTAYMELRSLTSEDTAVYYCARSDTTVVASRYYAMDYWGQGTSVTVSS VL: DIVLTQSPASLAMSLGKRATISCRASESVSIIGTNLIHWYQQKPGQPPKLLIYHASNLETGVPVRFSGSGSRTDFTLTIDPVEEDDVAIYYCLQSRKIPPTFGGGTKLEIK	fold over background	31.1
anti-IL18BP antibody BP-04 (antibody, V domains shown, also called BP-04 (hybridoma); BP-04 (parental)) VH: HVHLHQSGAELVRPGVSVKISCRGSGYTFTDYDVHWVKQSHAKSLEWIGVISTYYGDVGYNQEFKGKATMTLDKSSSTSYLELARLTSEDSAIYYCARSGTYYYGTRESHALDYWGQGTSVTVSS VL: DIQMTQSPASLSVSVGETVTITCRTSDNVYSNLAWYQQKQGKSPQLLVYGAINLADGVPSRFSGSGSDTQYSLKINNLQSEDFGSYYCQHFWGNPYTFGGGTKLEIK	fold over background	45.2

# evaluate next
Entry anti-IL18BP antibody BP-13 (antibody, human IgG1, V domains shown) VH: QVQLQQSGAELVRPGASVTLSCKASGYTFTDYEMHWVKQTPVHGLEWIGPIDPETGDTAYNQKFKGQATLTADKSSSTAYMELSSLTSEDSAVYYCTRGSRGVFDYWGQGTALTVSS VL: DIVMTQSHKFMSTSVGDRVSITCKASQDVGTAVAWYQQKPGQSPKLLIYWASARHTGVPDRFTGSGSGTDFTLTISNVQSEDLADYFCQHYFNFPRTFGGGTKLEIT : reported ELISA binding ratio (fold-change over background) = ? 49
